Below, pIC50 values reported for UniProtKB P08246 across several publications.
Convention used: pIC50 is expressed as -log10 of the molar concentration.

# value of pIC50, UniProtKB P08246, item CC(=O)OCC1=C(C(=O)OC(c2ccccc2)c2ccccc2)N2C(=O)/C(=C\Br)[C@H]2S(=O)(=O)C1 = 5.47

# value of pIC50, UniProtKB P08246, item CC(=O)OCC1=C(C(=O)OC(c2ccccc2)c2ccccc2)N2C(=O)/C(=C/C#N)[C@H]2S(=O)(=O)C1 = 6.31

# value of pIC50, UniProtKB P08246, item CC(C)(C)C(=O)Oc1ccc(C(=O)c2ccccc2)cc1CCCO = 6.46

# value of pIC50, UniProtKB P08246, item CCC(NC(=O)C(CC(C)C)NC(=O)OCc1ccccc1)C(=O)C(=O)NCCNC(=O)CCCCC1SCC2NC(=O)NC21 (centres unmarked) = 4.42

# value of pIC50, UniProtKB P08246, item CC(=O)OCC1=C(C(=O)OC(c2ccccc2)c2ccccc2)N2C(=O)C(=C(Cl)Cl)[C@H]2S(=O)(=O)C1 = 5.59

# value of pIC50, UniProtKB P08246, item CO[C@H]1C(=O)N2C(C(=O)OC(C)(C)C)=C(C)/C(=C/c3cccnc3)S(=O)(=O)[C@H]12 = 7.46

# value of pIC50, UniProtKB P08246, item CCCCNC(=O)C(=O)C(CC)NC(=O)C(CC(C)C)NC(=O)OCc1ccccc1 (centres unmarked) = 4.20

# value of pIC50, UniProtKB P08246, item COC(=O)/C=C1/C(=O)N2C(C(=O)OC(c3ccccc3)c3ccccc3)=C(COC(C)=O)CS(=O)(=O)[C@H]12 = 5.05

# value of pIC50, UniProtKB P08246, item CC(=O)OCC1=C(C(=O)OC(c2ccccc2)c2ccccc2)N2C(=O)C(=C=CBr)[C@H]2SC1 = 5.27

# value of pIC50, UniProtKB P08246, item CC(C)(C)C(=O)Oc1ccc(C(=O)c2ccc(Cl)cc2)cc1 = 6.54

# value of pIC50, UniProtKB P08246, item Cc1cccc2nc([C@@H](NC(=O)[C@@H]3CCCN3C(=O)/C=C/c3ccccc3)C(C)C)oc(=O)c12 = 5.88

# value of pIC50, UniProtKB P08246, item CC(C)(C)C(=O)Oc1ccc(C(=O)c2ccc(OC(=O)C(C)(C)C)cc2)cc1 = 7.22

# value of pIC50, UniProtKB P08246, item CC(=O)/C=C1/C(=O)N2C(C(=O)OC(c3ccccc3)c3ccccc3)=C(COC(C)=O)CS[C@H]12 = 5.37

----------
Below, pIC50 values reported for human leukocyte elastase (HLE) (Homo sapiens, UniProt P08246) across several publications.
Convention used: pIC50 is expressed as -log10 of the molar concentration.

Lab note: CC(=O)OCC1=C(C(=O)OC(c2ccccc2)c2ccccc2)N2C(=O)C(=C(Br)Br)[C@H]2S(=O)(=O)C1 gave pIC50 of 5.68

Lab note: CC(=O)OCC1=C(C(=O)OC(c2ccccc2)c2ccccc2)N2C(=O)/C(=C/C(=O)OC(C)(C)C)[C@H]2S(=O)(=O)C1 gave pIC50 of 5.15

Lab note: CO[C@H]1C(=O)N2C(C(=O)OC(C)(C)C)=C(COC(C)=O)/C(=C/c3cccnc3)S(=O)(=O)[C@H]12 gave pIC50 of 8.14

Lab note: CCC(NC(=O)C(CC(C)C)NC(=O)OCc1ccccc1)C(=O)C(=O)NCC(O)c1ccc(OCc2ccccc2)c(OCc2ccccc2)c1 (stereo not shown) gave pIC50 of 4.19

Lab note: CCCC(C)(C)C(=O)Oc1ccc(C(=O)c2ccc(OC(=O)C(C)(C)CCC)cc2)cc1 gave pIC50 of 6.17

Lab note: CC(=O)OCC1=C(C(=O)OC(c2ccccc2)c2ccccc2)N2C(=O)/C(=C\Br)[C@H]2SC1 gave pIC50 of 6.41

Lab note: CCCCCCCNC(=O)C(=O)C(CC)NC(=O)C(CC(C)C)NC(=O)OCc1ccccc1 (stereo not shown) gave pIC50 of 4.28

----------
Below, IC50 values reported for UniProtKB P08246 across several publications.
Supply the numeric figure in µM, leaving out any unit text.

# value of IC50, UniProtKB P08246, item CC(C)(C)C(=O)Oc1ccc(C(=O)c2ccccc2)c(OC(=O)C(C)(C)C)c1 = 0.084

# value of IC50, UniProtKB P08246, item CCCCCC(=O)N1CCC[C@H]1C(=O)N[C@H](c1nc2cccc(C)c2c(=O)o1)C(C)C = 1.22

# value of IC50, UniProtKB P08246, item C=C=C1C(=O)N2C(C(=O)OC(c3ccccc3)c3ccccc3)=C(COC(C)=O)CS(=O)(=O)[C@H]12 = 6.1

----------
Below, IC50 values reported for human leukocyte elastase (HLE) (Homo sapiens) across several publications.
Supply the numeric figure in µM, leaving out any unit text.

# value of IC50, human leukocyte elastase (HLE) (Homo sapiens), item CC(=O)OCC1=C(C(=O)OC(c2ccccc2)c2ccccc2)N2C(=O)/C(=C/c3ccccc3)[C@H]2S(=O)(=O)C1 = 8.9

# value of IC50, human leukocyte elastase (HLE) (Homo sapiens), item CC(=O)OCC1=C(C(=O)OC(c2ccccc2)c2ccccc2)N2C(=O)/C(=C/C=O)[C@H]2SC1 = 13.9

# value of IC50, human leukocyte elastase (HLE) (Homo sapiens), item COC(=O)/C=C1/C(=O)N2C(C(=O)OC(c3ccccc3)c3ccccc3)=C(COC(C)=O)CS[C@H]12 = 2.6

# value of IC50, human leukocyte elastase (HLE) (Homo sapiens), item CO[C@H]1C(=O)N2C(C(=O)OC(C)(C)C)=C(COC(C)=O)/C(=C\c3cn(C)nn3)S(=O)(=O)[C@H]12 = 0.0092

# value of IC50, human leukocyte elastase (HLE) (Homo sapiens), item CCCCC(=O)C1=C(C)C2(CC2(c2ccccc2)c2ccccc2)S(=O)(=O)[C@@H]2[C@@H](OC)C(=O)N12 (stereo partly drawn) = 0.0074

# value of IC50, human leukocyte elastase (HLE) (Homo sapiens), item CC(=O)OCC1=C(C(=O)OC(c2ccccc2)c2ccccc2)N2C(=O)C(=C(Br)Br)[C@H]2SC1 = 0.26

# value of IC50, human leukocyte elastase (HLE) (Homo sapiens), item CCCCCCCC/C=C\CCCCCCCC(=O)N1CCCC(C(=O)O)C1 (stereo not drawn) = 3.4

# value of IC50, human leukocyte elastase (HLE) (Homo sapiens), item CO[C@H]1C(=O)N2C(C(=O)OC(C)(C)C)=C(COC(C)=O)/C(=C\c3cccnc3)S(=O)(=O)[C@H]12 = 0.0072

# value of IC50, human leukocyte elastase (HLE) (Homo sapiens), item CC(C)CC(NC(=O)OCc1ccccc1)C(=O)NC(Cc1ccccc1)C(=O)C(=O)NCC(O)c1ccc(OCc2ccccc2)cc1 (stereo not drawn) = 40

# value of IC50, human leukocyte elastase (HLE) (Homo sapiens), item CC(=O)OCC1=C(C(=O)OC(c2ccccc2)c2ccccc2)N2C(=O)C(=C=CC(C)(C)C)[C@H]2S(=O)(=O)C1 = 10.5

# value of IC50, human leukocyte elastase (HLE) (Homo sapiens), item CCCNC(=O)C(=O)C(Cc1ccccc1)NC(=O)C(CC(C)C)NC(=O)OCc1ccccc1 (stereo not drawn) = 44

# value of IC50, human leukocyte elastase (HLE) (Homo sapiens), item CCCCCCCCNC(=O)C(=O)C(CC)NC(=O)C(CC(C)C)NC(=O)OCc1ccccc1 (stereo not drawn) = 45

# value of IC50, human leukocyte elastase (HLE) (Homo sapiens), item CC[C@H](NC(=O)[C@H](CC(C)C)NC(=O)OCc1ccccc1)C(=O)C(=O)NCC(O)c1ccc(N(C)C)cc1 (stereo partly drawn) = 18

----------
Below, pIC50 values reported for human leukocyte elastase (HLE) (Homo sapiens) across several publications.
Convention used: pIC50 is expressed as -log10 of the molar concentration.

# value of pIC50, human leukocyte elastase (HLE) (Homo sapiens), item CCC(NC(=O)C(CC(C)C)NC(=O)OCc1ccccc1)C(=O)C(=O)NCC(O)c1cccc(C(F)(F)F)c1 (stereo not shown) = 4.96

# value of pIC50, human leukocyte elastase (HLE) (Homo sapiens), item CC(C)(C)OC(=O)Oc1ccc(C(=O)c2ccc(OC(=O)OC(C)(C)C)cc2)cc1 = 6.05

# value of pIC50, human leukocyte elastase (HLE) (Homo sapiens), item CC(C)C[C@H](NC(=O)OCc1ccccc1)C(=O)N[C@@H](Cc1ccccc1)C(=O)C(N)=O = 4.00

# value of pIC50, human leukocyte elastase (HLE) (Homo sapiens), item Cc1cccc2nc([C@@H](NC(=O)[C@@H]3CCCN3C(=O)OCc3ccccc3)C(C)C)oc(=O)c12 = 6.55

# value of pIC50, human leukocyte elastase (HLE) (Homo sapiens), item CC(=O)OCC1=C(C(=O)OC(c2ccccc2)c2ccccc2)N2C(=O)C(=C(Cl)Cl)[C@H]2SC1 = 5.19

# value of pIC50, human leukocyte elastase (HLE) (Homo sapiens), item CC(C)C[C@H](NC(=O)OCc1ccccc1)C(=O)N[C@@H](Cc1ccccc1)C(=O)C(=O)NCC(O)c1ccccc1 (stereo partly shown) = 4.36

# value of pIC50, human leukocyte elastase (HLE) (Homo sapiens), item C=CC(C)c1cc(C(=O)c2ccccc2)ccc1OC(=O)C(C)(C)C (stereo not shown) = 6.49

# value of pIC50, human leukocyte elastase (HLE) (Homo sapiens), item C=C(C)Cc1cc(C(=O)c2ccccc2)ccc1OC(=O)C(C)(C)C = 7.07

# value of pIC50, human leukocyte elastase (HLE) (Homo sapiens), item Cc1cccc2nc([C@@H](NC(=O)[C@@H]3CCCN3C(=O)OC(C)(C)C)C(C)C)oc(=O)c12 = 5.57

# value of pIC50, human leukocyte elastase (HLE) (Homo sapiens), item CC(C)C[C@H](NC(=O)OCc1ccccc1)C(=O)N[C@@H](Cc1ccccc1)C(=O)C(=O)NCC(O)c1ccc(OCc2ccccc2)c(OCc2ccccc2)c1 (stereo partly shown) = 4.66

# value of pIC50, human leukocyte elastase (HLE) (Homo sapiens), item CC(C)(C)C(=O)Oc1cc(C(=O)c2ccc(OC(=O)C(C)(C)C)c(OC(=O)C(C)(C)C)c2OC(=O)C(C)(C)C)cc(OC(=O)C(C)(C)C)c1OC(=O)C(C)(C)C = 6.44

# value of pIC50, human leukocyte elastase (HLE) (Homo sapiens), item CC(C)(C)C(=O)Oc1ccc(C(=O)c2ccccc2)cc1 = 6.21
